Where do these numbers come from? They come from paper PMC3894639.

# Tgt: OATP1B1 (Homo sapiens, UniProt Q9Y6L6)
# Sequence (Q9Y6L6 1-691): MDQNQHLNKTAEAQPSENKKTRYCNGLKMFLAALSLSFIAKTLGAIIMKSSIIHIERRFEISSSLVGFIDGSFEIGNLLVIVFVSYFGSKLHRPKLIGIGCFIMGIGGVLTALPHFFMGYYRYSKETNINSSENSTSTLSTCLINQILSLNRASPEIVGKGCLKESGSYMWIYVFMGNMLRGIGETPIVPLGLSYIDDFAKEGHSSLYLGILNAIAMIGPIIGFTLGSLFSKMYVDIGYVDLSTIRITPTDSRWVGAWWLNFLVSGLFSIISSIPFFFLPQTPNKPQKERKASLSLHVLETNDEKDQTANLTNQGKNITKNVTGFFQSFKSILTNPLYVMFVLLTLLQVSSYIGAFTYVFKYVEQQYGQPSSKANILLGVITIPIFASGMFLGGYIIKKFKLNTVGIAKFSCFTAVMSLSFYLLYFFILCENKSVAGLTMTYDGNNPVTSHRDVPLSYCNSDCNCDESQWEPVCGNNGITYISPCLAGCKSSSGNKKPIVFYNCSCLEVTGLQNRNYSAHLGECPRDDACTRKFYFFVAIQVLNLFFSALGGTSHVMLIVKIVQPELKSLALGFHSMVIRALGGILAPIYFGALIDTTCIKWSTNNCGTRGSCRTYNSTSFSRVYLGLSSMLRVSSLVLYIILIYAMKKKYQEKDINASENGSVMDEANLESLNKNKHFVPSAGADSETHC
# Setup Conditions: 20 nmol/l [3H]-ES; concentrations up to 100 µmol/l
Outcome Measure: Inhibition of OATP1B1-mediated uptake of ES (in words)

>  <Molecule>
COC(=O)[C@H](c1ccccc1Cl)N1CCC2SC(=O)C=C2C1 (stereo partly drawn) [2-Oxo clopidogrel, 2-oxo clopidogrel]

>  <Result>
inhibited

$$$$
>  <Molecule>
CC(C)(O)c1ccccc1CC[C@@H](SCC1(CC(=O)O)CC1)c1cccc(/C=C/c2ccc3ccc(Cl)cc3n2)c1 [Montelukast, montelukast sodium]

>  <Result>
inhibited

$$$$
